test system: K4 kissing-loop RNA reporter; assay: apparent KD of K4 kissing-loop reporter; higher = weaker reporter binding; settings: Eterna round: R107; input ligand: none
valueKind: apparent KD of K4 kissing-loop reporter (nM)
Provide the reading as a plain figure in nM.

Here is how some sequences turned out for apparent KD of K4 kissing-loop reporter.
{"sequenceRecord": "AAGUCAUAGGCAGGAUAUGCAUUGUAAUAAGGCAAUAUAUACGUAUAGAGUGAUGUUUUGUACCAGGCAGAAGGGCUACAUCAGU [FMN B Excl V10 (+5A/U)]", "targetOrSystem": "K4 kissing-loop RNA reporter", "outputUnit": "nM", "apparent KD of K4 kissing-loop reporter": 652}
{"sequenceRecord": "GGCUCCUACGGAGGAUAUAGUAGCCCAGAGUGAUGUUCUAGGGUGUUUUCCGAUUUAGUCAUUGUUCUAGAAGGCCGUAGGAGCC", "targetOrSystem": "K4 kissing-loop RNA reporter", "outputUnit": "nM", "apparent KD of K4 kissing-loop reporter": 189}
{"sequenceRecord": "AGGCCACACAGCGAGUGAUGUUUGCGUUAUCGAGGACCGGUACGGCCGCCACUCGGCCUUUAGCGCCUUACCAAUUAGGUGUUGC [theeternabot_sameState_KL_Trp_A_46]", "targetOrSystem": "K4 kissing-loop RNA reporter", "outputUnit": "nM", "apparent KD of K4 kissing-loop reporter": 731}

# input for lookup
Request: Given UUGAGCCGGACCGAAGUCCGGCUCUGCGAGCGAGGACCGGUACGGCCGCCACUCGGUGCAGUGAUGUUGCAUGGCCGCAAGGCCG [#2 Exclusion - Tryptophan A Attempt #8 (HarryS)] , state its recorded apparent KD of K4 kissing-loop reporter.
Response: 418

* * *

system: K4 kissing-loop RNA reporter; assay: apparent KD of K4 kissing-loop reporter; higher = weaker reporter binding; settings: Eterna round: R107; input ligand: tryptophan 2.4 mM;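 also: bound reporter read as fluorescence of individual clusters on recovered sequencing chips by microscopy, with normalized cluster intensities fitted with a binding model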
Entries and their apparent KD of K4 kissing-loop reporter
Answer with a number only, understood to be in nM.

{"sequenceRecord": "UGAUACCAGGCGGCCGCCACUCCCGCAGGUCAAAGACCUGCGAAGCUGGUUCUCCAGUGAUGUUGGAGGACCGGGCCUGGUAUCU [FiskerMod 26 - Jieux - Exclusion - Tryptophan B]", "valueKind": "apparent KD of K4 kissing-loop reporter", "reportedValue": 436}
{"sequenceRecord": "GGCAGUGAUGUUGCCAGUGGCAGAUGCGAAGGAGCGCGGUGAGACGCAGGUAGGUCGCGCAUUGAAAUUGCUGUCACUAAAAUGC [#1]", "valueKind": "apparent KD of K4 kissing-loop reporter", "reportedValue": 238}
{"sequenceRecord": "GCCGUACGCAUGGAUACCAGAUGGCACUAUUUUCUCCCAGAGUGAUGUUCUGGCCUGCCUAUCCCUUGGCAGCCAUGCGUACGGC", "valueKind": "apparent KD of K4 kissing-loop reporter", "reportedValue": 671}
{"sequenceRecord": "UGGUUAAGCAGUGAUGUUGCAAGUAAUGAUACCAGUUAAGAAGAGAACCCUUGGCAGCAUAAAGUGCGCUCUGAUGAGUGUGCUU [whbob_SS_Theo_A_w54]", "valueKind": "apparent KD of K4 kissing-loop reporter", "reportedValue": 179}
{"sequenceRecord": "CAUAGACAAGUGAUGUUUGUCAUAACCGAAGGAGCGUCGUUGAAGACAGGUAGGUCGCGGAUUAAUUUAGAUUAUAUUCUUUUUA [JR_SSArginiA_Sub020]", "valueKind": "apparent KD of K4 kissing-loop reporter", "reportedValue": 542}

Request: So what's the measured apparent KD of K4 kissing-loop reporter for this one? GCGCGUCAUGUCAGCGGUGACACUGUCGAUACCAGUGCCGGAAGGCGCCCUUGGCAGCGACGUGCUGGAGUGAUGUUCCAGCGUU [#2 Exclusion - Theophylline A Attempt #28 (HarryS)]
Response: 130

Request: Form field: reported apparent KD of K4 kissing-loop reporter of GGUGACAACCAGAGGUGAUGUAUAGUAUCGCGAGGACCGGUACGGCCGCCACUCGUGAAGAGAAAGGAGUGAUGUUCCGUAAUGG [Kazoo C7]
Response: 138

Request: # get_value(readout='apparent KD of K4 kissing-loop reporter', item= UCCUGCAAUCUGCCACGAAAGUGGGUUGAUACCAGAGUCGAAAGACUCCCUUGGCAGCGAGUGAUGUUCGUUGCAGGUGAAUAAA [MatMod 9 - Jieux - Exclusion - Theophylline A] )
Response: 323

Request: # lookup: apparent KD of K4 kissing-loop reporter of CUAUGGAAACAUAGUGAUCGGGAAACCGAUACCAGUAUGGAAACAUACCCUUGGCAGCGGAAUGAUCUAACGGAGUGAUGUUCCG [Theophylline A K4 23]
Response: 496

Request: Given the entry AAUUUACAAUAAUCAUUUAAAGGAUCAGAAGGAGCGUGAAAUAACACAGGUAGGUCGCUGAGCGAGUGAUGUUCGCUAUAUACAA [JR_ExcArginiA_Sub001] , report its measured apparent KD of K4 kissing-loop reporter.
Response: 50.1

Request: Form field: reported apparent KD of K4 kissing-loop reporter of ACAGCGAGCAUUAACGCGCUCGCAGGUUGCAAGGAUAUAUUUCGUCAUAGAAGGUGCUAGACCAUAAGUGAUGUUUGUGGAUAUA [theeternabot_sameState_KL_FMN_A_16]
Response: 525

Request: Quick check: apparent KD of K4 kissing-loop reporter of UGUACCGAGUUAGGAUAUGUCGUCGAAAGACGAAAUGGAGUGAUGUUCCUUAAACUGCGAAAGCAGACAGAAGGGAUUUGGUACU [FmnBS 29 U11+U77] ?
Response: 378

* * *

This listing pairs sequences with measured apparent KD of MS2 coat protein.
tested on: MS2 coat protein; test: apparent KD of MS2 coat protein; designed switch direction (-1 OFF switch, 1 ON switch): -1; higher = weaker reporter binding; settings: input ligand: FMN 200 uM
Report only the number, with the unit nM understood.

Solved entries (count: 5):
{"sequenceRecord": "ACAUGUCAUUGAGGAUAUUGCACACAUGAGGAUCACCCAUGUAUACGGAUGCUCUUACGUGAGUUCGAGAAGGCGAUGUACAUU [Ex NG2 #89] (Eterna round: R96, puzzle: Exclusion NG 2)", "outputUnit": "nM", "apparent KD of MS2 coat protein": 290}
{"sequenceRecord": "UGAGACUGAGGAUAUACUUGCCCAUAAAGUGGGUAGUGGGUACAUGAGGAUCACCCAUGUAGAAGGCAGCCUCG [Omei Repeat Sequence v3] (Eterna round: R97, puzzle: Exclusion 2)", "outputUnit": "nM", "apparent KD of MS2 coat protein": 597}
{"sequenceRecord": "CGAUGACGAGUGAGGAUAUCGUGUUCGAAAGAACGUGAGAAGGCACAUGAGGAUCACCCAUGUGAUCCUCAUCG [Omei Ex4B A26] (Eterna round: R97, puzzle: Brourd's mod of Exclusion 4)", "outputUnit": "nM", "apparent KD of MS2 coat protein": 708}
{"sequenceRecord": "UAUUUUAAAGUAAGGAUAUCGGUCCGAAAGGACUACGAGAAGGUACAUGAGGAUCACCCAUGUGAAAUAAGAAU [Mod of Zala 23 - Jieux - Brourd's Mod of Exclusion 4] (Eterna round: R97, puzzle: Brourd's mod of Exclusion 4)", "outputUnit": "nM", "apparent KD of MS2 coat protein": 20.8}
{"sequenceRecord": "CGGGCGCGAGGAUAUACAUGAGGAUCACCCAUGUAACGGCGAGCAAUGUUUGUUGCGUGUAGAAGGUGUGUUUG [-20.1, -18.7 kcal, A 27%] (Eterna round: R97, puzzle: Exclusion 3)", "outputUnit": "nM", "apparent KD of MS2 coat protein": 112}

Request: Which value of apparent KD of MS2 coat protein has been reported for CCAUUCAGAGGAUAUGCGCAUAAAUAAAACUUUUUUUUUUAACAUGAGGAUCACCCAUGUAGAAGGCUGUAACC [Ex2 #45] (Eterna round: R97, puzzle: Exclusion 2) in the records?
Response: 27.2

Request: Report apparent KD of MS2 coat protein for GAUCUACAUGAGGAUCACCCAUGUAAGGAUAUCUACAUUGAAGCCUCGGCUUCAAUGUAGAGAAGGUACAAUUA [E1/10-B2] (Eterna round: R97, puzzle: Exclusion 1) please.
Response: 31.5

Request: Record request: apparent KD of MS2 coat protein value, item UACAAGCUUUUAAGAUCCCACAUGAGGAUCACCCAUGUGCUCGUCUUAUAACGUACUGUGACGAAAGUCACGGUACG [JL TOV1 3.24] (Eterna round: R97, puzzle: Sensor, turn-off variant 1)
Response: 15.8

Request: So what's the measured apparent KD of MS2 coat protein for this one? UGAGUGCUGCGAGGAUAUACAUGAGGAUCACCCAUGUUUUCGUGUGAGGCAAAGCCUCACACGAUGUAGAAGGCGCAGUACUCU [Mat - Exclusion NG 2 - Mod of JL - D35] (Eterna round: R96, puzzle: Exclusion NG 2)
Response: 13.2

Request: Name the recorded apparent KD of MS2 coat protein for AAAACGGACCGAGGAUAUACAUGAUAUCUUUACGUAGAAGGCGGACCGGCGACUUGAGGAUCACCCAAGUGUCCUCUUUUGCGG [Mutated MS2 EX1.26] (Eterna round: R96, puzzle: Exclusion NG 1) .
Response: 184

Request: Suppose we examine the sequence AUAAUGUGAGGAUAUCGAGACUACUGCCUCGGCAGUAGUCUCGAGAAGGCACAUGAGGAUCACCCAUGUGAUCA [E4/2-A2] (Eterna round: R97, puzzle: Exclusion 4) ; what apparent KD of MS2 coat protein value has been reported?
Response: 79

Request: Sample UUAUUGUGUGUAGGAUAUGCGUGUUAUUAUUAUGCAGAAGGACAUGAGGAUCACCCAUGUGUAUUAUUAUUAUAUAUUAUAUAU [Title] (Eterna round: R96, puzzle: Exclusion NG 1) — what was its apparent KD of MS2 coat protein?
Response: 45.3

Request: Query (sequence): UUAAUGUGAGGAUAUCAGGUGUGCUAGCGUACUGGUACAUCUGAGAAGGCACAUGAGGAUCACCCAUGUUCCUU [JL-ex4-3.27 Brourd mod] (Eterna round: R96, puzzle: Exclusion 4) ; field requested: apparent KD of MS2 coat protein
Response: 59.4

Request: Dear colleague, I am looking for the recorded apparent KD of MS2 coat protein of the following sequence: CCACUUACUGAGGAUAUUGCAUCACCCGACUGAUAAGAAGGCAGAACAUGAGGAUCACCCAUGUGGGUACUCAC [Bingo-Bango-9] (Eterna round: R97, puzzle: Exclusion 6)
Response: 207
